The measurements presented in this section are drawn from ChEMBL document CHEMBL4330129.

So I've got a bunch of molecules here, and I need their solubility kinetic values.
- Method Description: Kinetic solubility of the compound at pH 7.4 by CLND method
- Format: physicochemical
- Run Parameters: buffer, read-out: Kinetic_solubility
Give the value in µM but do not write µM after it.

IN: Item CC(=O)CCCCN=C=S : provide solubility kinetic
OUT: 206

IN: Return solubility kinetic (reported value) for this molecule: CCNC(=O)N1CCC(SC(=S)NCCCCNC(=O)NCc2ccccc2)CC1
OUT: 255

IN: Supply measured solubility kinetic of C[S+]([O-])CCCCNC(=S)SCc1cccc([N+](=O)[O-])c1 (stereo unspecified) in your reply.
OUT: 372

IN: Please supply the value of reported solubility kinetic for the item CS(=O)(=O)N1CCC(CCN=C=S)C1 (stereo unspecified)
OUT: 288

IN: Write down solubility kinetic measured for item CC(C)(C)OC(=O)N1CCC(SC(=O)NCCCCNC(=S)SC2CCN(C(=O)OC(C)(C)C)CC2)CC1
OUT: 9

IN: Determine from records and report solubility kinetic for CC(C)(C)OC(=O)N1CCC(SC(=S)NCCCCNC(=O)Nc2ccc3nccnc3c2)CC1
OUT: 42

IN: Indicate the recorded solubility kinetic value for this molecule: C[S+]([O-])CCCN=C=S (stereo unspecified)
OUT: 331

IN: Assign solubility kinetic to the following record: CN(C)CCS(=O)(=O)CCCCN=C=S
OUT: 376

IN: Fill in solubility kinetic for record O=S(=O)(CC1(c2ccc(N=C=S)cc2)COC1)c1ccccc1
OUT: 9

IN: Provide only the value of recorded solubility kinetic for CN(C)CCCS(=O)(=O)CCCCN=C=S
OUT: 210

IN: Tell me measured solubility kinetic for O=C(NCCCCN=C=S)C1CCCCC1 please.
OUT: 369

IN: Supply reported solubility kinetic belonging to this molecule: C[S+]([O-])CCCCNC(=S)SC1CCN(C(=O)OC(C)(C)C)CC1 (stereo unspecified)
OUT: 382

IN: Look up and report measured solubility kinetic for this entry: Cl.O=C(NCCCCNC(=S)SC1CCNCC1)Nc1ccncc1
OUT: 281

IN: Return solubility kinetic for the following molecule: O=C(NCCCCN=C=S)Nc1ccncc1
OUT: 400

IN: Look up and state reported solubility kinetic for Cc1ccccc1[S+]([O-])CCCCN=C=S (stereo unspecified)
OUT: 362

IN: Find the measured solubility kinetic of CN1CCC(SC(=S)NCCCCNC(=O)OCc2ccccc2Cl)CC1 and report it.
OUT: 280

IN: Give me measured solubility kinetic, please, for this molecule: COCCOC(=O)NCCCCN=C=S
OUT: 1

IN: Tell me solubility kinetic reported for O=C(NCCCCN=C=S)Nc1ccc2c(c1)OCO2
OUT: 42

IN: Report solubility kinetic for CC(C)(C)OC(=O)N1CCC(SC(=S)NCCCCNC(=O)NCc2ccccc2)CC1
OUT: 34

IN: # return recorded solubility kinetic for entry CC(C)(C)OC(=O)N1CCC(SC(=S)NCCCCNC(=O)Nc2ccc3c(c2)OCO3)CC1
OUT: 17

IN: State its solubility kinetic: Cc1ccccc1S(=O)(=O)CCCCN=C=S
OUT: 261

----------
Would you mind telling me the reported solubility kinetic of each entry?
- Method Description: Kinetic solubility of the compound at pH 7.4 by CLND method
- Format: physicochemical
- Run Parameters: buffer, read-out: Kinetic_solubility

IN: Give the reported solubility kinetic for this compound. O=C(NCCCCN=C=S)Nc1ccc2nccnc2c1
OUT: ≥ 356 µM

IN: Answer with the recorded solubility kinetic for the compound listed here: C[S+]([O-])CCCCCCN=C=S (stereo unspecified)
OUT: ≥ 324 µM

IN: # return recorded solubility kinetic for entry O=C(CC1CCCCC1)NCCCCN=C=S
OUT: ≥ 413 µM

IN: Supply recorded solubility kinetic for C[S+]([O-])CCCCNC(=S)SCCCO (stereo unspecified) here.
OUT: ≥ 467 µM

IN: Report solubility kinetic, nothing else, for this compound: CC(=O)NCCS(=O)(=O)CCCCN=C=S
OUT: ≥ 422 µM

IN: Fill in reported solubility kinetic for this entry: O=S(=O)(CCCCN=C=S)c1ccccn1
OUT: ≥ 331 µM

IN: // Input: CS(=O)(=O)N1CCC(CN=C=S)C1 (stereo unspecified) . Output its solubility kinetic only.
OUT: ≥ 451 µM

IN: // Input: CC(=O)NCCSC(=S)NCCCC[S+](C)[O-] (stereo unspecified) . Output its solubility kinetic only.
OUT: ≥ 531 µM

IN: Name the recorded solubility kinetic of the compound listed here: C[S+]([O-])CCCCNC(=S)SCCSC(=S)NCCCC[S+](C)[O-] (stereo unspecified)
OUT: ≥ 425 µM

IN: Supply recorded solubility kinetic for O=C(NCCCCN=C=S)c1ccno1 here.
OUT: ≥ 473 µM

IN: Check the records and state solubility kinetic for CN1CCC(SC(=S)NCCCCNC(=O)OCc2ccccn2)CC1
OUT: ≥ 385 µM

IN: Please report the measured solubility kinetic for CNC(=O)NCCCCN=C=S
OUT: ≥ 436 µM

IN: Hello, please tell me recorded solubility kinetic for this one: O=S1(=O)CCN(CCN=C=S)CC1
OUT: ≥ 274 µM

IN: Specify measured solubility kinetic for [O-][S+](CCCCN=C=S)c1ccncc1 (stereo unspecified) .
OUT: 201 to 224 µM

IN: Let me know recorded solubility kinetic for CN1CCC(SC(=S)NCCCCNC(=O)CC2CCCC2)CC1 , thanks.
OUT: ≥ 256 µM

IN: For CN1CCC(SC(=S)NCCCCNC(=O)NCc2ccccc2)CC1 , write its solubility kinetic.
OUT: ≥ 451 µM

----------
- Method Description: Lipophilicity, log D of the compound at pH 7.4 by chromatographic method
- Type: physicochemical
- Run Parameters: buffer
The threshold is inclusive: chromatographic logD of exactly 4 counts as satisfied; values below receive not satisfied.

IN: Kindly determine if chromatographic logD recorded for Cn1cc(CCN=C=S)c2ccccc21 is above or exactly 4.
OUT: satisfied

IN: Could you tell me if the measured chromatographic logD of O=C(NCCCCN=C=S)Nc1ccc2scnc2c1 reaches 4 or more?
OUT: not satisfied

IN: Is chromatographic logD for C[S+]([O-])CCCCNC(=S)SCc1cccc([N+](=O)[O-])c1 (stereo not drawn) at or above 4?
OUT: not satisfied

IN: Hi team, for CC(C)(C)OC(=O)N1CCC(SC(=O)NCCCCNC(=S)SC2CCN(C(=O)OC(C)(C)C)CC2)CC1 , is the recorded chromatographic logD at or above 4?
OUT: satisfied

IN: Form field: chromatographic logD at least 4? Entry: C[S+]([O-])CCCCNC(=S)SCCCO (stereo not drawn)
OUT: not satisfied

----------
Task for the reader: assign each of the following molecules its reported IC50.
- Target System: Keap1/Nrf2 (Homo sapiens, UniProt Q14145+Q16236)
- Sequence (Q16236 whole entry): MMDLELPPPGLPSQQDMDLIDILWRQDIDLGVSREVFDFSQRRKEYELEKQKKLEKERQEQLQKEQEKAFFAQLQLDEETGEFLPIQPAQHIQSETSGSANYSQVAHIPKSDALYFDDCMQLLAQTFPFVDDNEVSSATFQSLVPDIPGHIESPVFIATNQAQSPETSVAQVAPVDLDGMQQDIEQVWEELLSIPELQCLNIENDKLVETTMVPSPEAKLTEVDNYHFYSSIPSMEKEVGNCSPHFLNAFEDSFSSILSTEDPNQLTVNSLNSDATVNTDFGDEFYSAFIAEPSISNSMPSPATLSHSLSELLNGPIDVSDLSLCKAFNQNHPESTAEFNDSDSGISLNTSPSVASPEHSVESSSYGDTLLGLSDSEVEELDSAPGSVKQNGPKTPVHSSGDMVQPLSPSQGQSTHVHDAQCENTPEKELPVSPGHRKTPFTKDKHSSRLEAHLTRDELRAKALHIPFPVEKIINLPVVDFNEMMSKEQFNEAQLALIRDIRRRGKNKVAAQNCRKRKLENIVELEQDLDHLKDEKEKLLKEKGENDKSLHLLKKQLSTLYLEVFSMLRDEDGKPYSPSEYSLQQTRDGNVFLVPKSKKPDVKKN
- Sequence (Q14145 whole entry): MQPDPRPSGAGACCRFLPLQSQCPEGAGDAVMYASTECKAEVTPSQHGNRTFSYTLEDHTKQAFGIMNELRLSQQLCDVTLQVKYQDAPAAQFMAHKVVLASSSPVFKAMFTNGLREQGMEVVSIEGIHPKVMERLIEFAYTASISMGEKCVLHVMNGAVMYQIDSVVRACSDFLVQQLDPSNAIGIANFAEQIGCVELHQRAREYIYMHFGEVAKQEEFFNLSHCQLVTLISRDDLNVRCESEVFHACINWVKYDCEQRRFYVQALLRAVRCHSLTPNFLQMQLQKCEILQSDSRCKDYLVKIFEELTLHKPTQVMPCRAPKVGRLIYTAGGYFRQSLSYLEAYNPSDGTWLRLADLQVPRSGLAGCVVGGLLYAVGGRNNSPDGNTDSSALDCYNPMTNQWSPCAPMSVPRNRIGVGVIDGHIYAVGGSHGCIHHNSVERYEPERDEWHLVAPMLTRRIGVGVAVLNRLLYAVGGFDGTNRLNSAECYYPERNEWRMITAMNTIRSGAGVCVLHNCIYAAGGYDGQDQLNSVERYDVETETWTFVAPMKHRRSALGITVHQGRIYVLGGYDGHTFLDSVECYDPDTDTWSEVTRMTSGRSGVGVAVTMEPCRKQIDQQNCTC
- Method Description: Binding affinity to FLAG/His-tagged Keap1 (unknown origin)/biotinylated full-length FLAG/His/Tev/Avi-tagged NRF2 (unknown origin) expressed in baculovirus infected Sf9 insect cells measured after 1 hr by TR-FRET assay

IN: Note down IC50 recorded for CN1CCC(SC(=S)NCCCC[S+](C)[O-])CC1 (centres undefined)
OUT: > 100 µM

IN: Let me know recorded IC50 for CCCCNCCSC(=S)NCCCC[S+](C)[O-] (centres undefined) , thanks.
OUT: > 100 µM

IN: Provide one value: measured IC50 of O=S(=O)(CCCCN=C=S)CCN1CCOCC1
OUT: > 100 µM

IN: Quickly give me recorded IC50 for CN(C)c1c(N(C)CCCN=C=S)c(=O)c1=O
OUT: > 100 µM

IN: Respond only with IC50 recorded for C[S+]([O-])CCCCNC(=S)SCCSC(=S)NCCCC[S+](C)[O-] (centres undefined)
OUT: > 100 µM

IN: Give IC50 for the following molecule: CS(=O)(=O)N1CCC(CN=C=S)C1 (centres undefined)
OUT: > 100 µM

IN: Give the measured IC50 for CNC(=O)CCCCN=C=S
OUT: > 100 µM

IN: Query IC50 for CC(C)(C)OC(=O)N1CCC(SC(=S)NCCCCNC(=O)OCc2ccccn2)CC1
OUT: > 100 µM

IN: Name the recorded IC50 of the item C[S+]([O-])CCCCNC(=S)SC1CCN(C(=O)OC(C)(C)C)CC1 (centres undefined) in your answer.
OUT: > 100 µM

IN: Specify IC50 for O=C(O)C(F)(F)F.[O-][S+](CCCCN=C=S)CCN1CCOCC1 (centres undefined) and stop.
OUT: > 100 µM

IN: // Input: CN(C)CC[S+]([O-])CCCCN=C=S (centres undefined) . Output its IC50 only.
OUT: > 100 µM

IN: Tell me its IC50 given CC(=O)NCC[S+]([O-])CCCCN=C=S (centres undefined) as the entry.
OUT: > 100 µM

IN: Query IC50 for CC(C)(C)OC(=O)N1CCC(SC(=O)NCCCCN=C=S)CC1
OUT: 12.6 µM

IN: In one line, give reported IC50 of the entry COC(=O)[C@H](CSC(=S)NCCCC[S+](C)[O-])NC(C)=O (some centres undefined) .
OUT: > 100 µM

IN: Could you please provide reported IC50 for C[S+]([O-])CCCCCCN=C=S (centres undefined) ? Thanks!
OUT: > 100 µM

IN: Tell me IC50 reported for CNC(=O)NCCCCN=C=S
OUT: 50.1 µM

IN: For the molecule S=C=NCCN1CCSCC1 , give its reported IC50.
OUT: > 100 µM

IN: Give me measured IC50, please, for this molecule: CN1CCC(SC(=S)NCCCCNC(=O)NCc2ccccc2)CC1
OUT: 20 µM

IN: // fetch IC50 given entry CC(=O)NCCS(=O)(=O)CCCCN=C=S
OUT: > 100 µM

IN: Give recorded IC50. CN(C)C(=O)CCCCN=C=S
OUT: > 100 µM

IN: Report IC50, nothing else, for this molecule: CN1CCC(SC(=S)NCCCCNC(=O)Oc2ccccc2)CC1
OUT: 25.1 µM

IN: Could you please provide reported IC50 for O=C(CC1CCCCC1)NCCCCN=C=S ? Thanks!
OUT: 25.1 µM

IN: Name the recorded IC50 of the molecule listed here: COC(=O)C(C[S+]([O-])CCCCN=C=S)NC(C)=O (centres undefined)
OUT: > 100 µM

IN: Provide IC50 value for the following molecule: CC(C)(C)OC(=O)N1CCC(SC(=S)NCCCCNC(=O)Nc2ccc3c(c2)OCCO3)CC1
OUT: 31.6 µM

IN: Please supply the value of reported IC50 for the item O=C(NCCCCN=C=S)C1CCCCC1
OUT: 50.1 µM

IN: Indicate its recorded IC50; the molecule in question is C[S+]([O-])CCCCNC(=S)SCCCO (centres undefined)
OUT: 25.1 µM

IN: Recall and state the measured IC50 for CN1CCC(SC(=S)NCCCCNC(=O)Nc2ccc3nccnc3c2)CC1 .
OUT: 10 µM

IN: Answer with reported IC50 of CN1CCC(SC(=S)NCCCCNC(=O)CC2CCCCC2)CC1
OUT: 15.8 µM

IN: Give the measured IC50 for CC(=O)N[C@@H](CSC(=S)NCCCC[S+](C)[O-])C(=O)O (some centres undefined)
OUT: > 100 µM

IN: Give the reported IC50 for this molecule. [O-][S+](CCCCN=C=S)c1ccccc1 (centres undefined)
OUT: 50.1 µM

IN: Quickly give me recorded IC50 for C[S+]([O-])CCCCNC(=S)SCCNC(=O)OC(C)(C)C (centres undefined)
OUT: > 100 µM

IN: Hello, please tell me recorded IC50 for this one: O=S(=O)(CC1(N2CCC(CN=C=S)CC2)COC1)c1ccccc1
OUT: 39.8 µM

IN: Dear colleague, please send me the reported IC50 for C[S+]([O-])CCCN=C=S (centres undefined) when you can.
OUT: > 100 µM

IN: Report measured IC50; entry is CN(C)CCC[S+]([O-])CCCCN=C=S (centres undefined)
OUT: > 100 µM
